# Tested on: CCRF-CEM leukemia
# assay info: NCI tumour cell line growth inhibition, 384-well format; in the data active = GI50 below about 0.43 µM; inactive = the rest
Classes used: active, inactive

compound=Cc1cnc(NC2CCOCC2)nc1-n1cnc(C(=O)N[C@H](CN)c2cc(F)cc(Cl)c2)c1 class_label=inactive
compound="Cc1cc(-c2ccc(C3C(C#N)=C(N)Oc4c3c(=O)oc3ccccc43)cc2)cnc1F (centres undefined)" class_label=inactive
compound=NC1(c2ccc(-c3nc4ccn5c(=O)[nH]nc5c4cc3-c3ccccc3)cc2)CCC1 class_label=active
compound=CNC[C@@H](NC(=O)c1ccc(-c2nc([C@H]3CC[C@H](O)[C@@H](F)C3)cnc2N)cc1F)c1cc(F)cc(Br)c1 class_label=inactive
